# MEASURED_TARGET: HLA-A*32:01
# METHOD: IEDB peptide-MHC binding, purified MHC/competitive/radioactivity; filed as Kd, often an IC50 or EC50 that approximates it; bounds were set here for any values at or beyond the usual limits of such assays
# CONDITION: source organism: Mammarenavirus whitewaterense
RECORDED_ENDPOINT: Kd

1. ATGTDMPGGY ≥ 69.9 µM

====

# MEASURED_TARGET: HLA-B*40:01
# METHOD: IEDB peptide-MHC binding, purified MHC/competitive/fluorescence; filed as Kd, often an IC50 or EC50 that approximates it; bounds were set here for any values at or beyond the usual limits of such assays
# CONDITION: source organism: Yersinia pestis CO92
RECORDED_ENDPOINT: Kd (nM)

1. GELIFSHNL 7

====

# MEASURED_TARGET: HLA-A*25:01
# METHOD: IEDB peptide-MHC binding, purified MHC/competitive/fluorescence; bounds were set here for any values at or beyond the usual limits of such assays
# CONDITION: source organism: Monodelphis domestica
RECORDED_ENDPOINT: IC50

1. YSLEYFQFVKK ≥ 20 µM

====

# MEASURED_TARGET: HLA-B*35:01
# METHOD: IEDB peptide-MHC binding, purified MHC/direct/fluorescence; filed as Kd, often an IC50 or EC50 that approximates it; bounds were set here for any values at or beyond the usual limits of such assays
# CONDITION: source organism: Cryptosporidium parvum
RECORDED_ENDPOINT: Kd (µM)

1) WLPWIPQLI 16

====

# MEASURED_TARGET: HLA-A*02:06
# METHOD: IEDB peptide-MHC binding, purified MHC/competitive/radioactivity; filed as Kd, often an IC50 or EC50 that approximates it; bounds were set here for any values at or beyond the usual limits of such assays
# CONDITION: source organism: Vaccinia virus Copenhagen
RECORDED_ENDPOINT: Kd (µM)

1. YLRLYIILA 4.18

====

# MEASURED_TARGET: HLA-B*07:02
# METHOD: IEDB peptide-MHC binding, purified MHC/competitive/fluorescence; filed as Kd, often an IC50 or EC50 that approximates it; bounds were set here for any values at or beyond the usual limits of such assays
# CONDITION: source organism: Bacillus anthracis str. A2012
RECORDED_ENDPOINT: Kd (nM)

1) MPLKKQILF 279

====

# MEASURED_TARGET: HLA-B*40:01
# METHOD: IEDB peptide-MHC binding, purified MHC/competitive/fluorescence; filed as Kd, often an IC50 or EC50 that approximates it; bounds were set here for any values at or beyond the usual limits of such assays
# CONDITION: source organism: Campylobacter jejuni subsp. jejuni BH-01-0142
pKd: −log10 of the molar value.
RECORDED_ENDPOINT: pKd

1) VSIRGSHHK 5.50

====

# MEASURED_TARGET: HLA-A*26:01
# METHOD: IEDB peptide-MHC binding, purified MHC/competitive/fluorescence; filed as Kd, often an IC50 or EC50 that approximates it; bounds were set here for any values at or beyond the usual limits of such assays
# CONDITION: source organism: Vaccinia virus WR
pKd: −log10 of the molar value.
RECORDED_ENDPOINT: pKd

1) SLFTEQAFY ≤ 5.30

====

# MEASURED_TARGET: HLA-A*80:01
# METHOD: IEDB peptide-MHC binding, purified MHC/competitive/fluorescence; filed as Kd, often an IC50 or EC50 that approximates it; bounds were set here for any values at or beyond the usual limits of such assays
# CONDITION: source organism: Burkholderia mallei NCTC 10229
RECORDED_ENDPOINT: Kd (nM)

1) RTFGQPLFF 413

====

# MEASURED_TARGET: HLA-B*51:01
# METHOD: IEDB peptide-MHC binding, purified MHC/direct/fluorescence; filed as Kd, often an IC50 or EC50 that approximates it; bounds were set here for any values at or beyond the usual limits of such assays
# CONDITION: source organism: Coxiella burnetii Q321
pKd: −log10 of the molar value.
RECORDED_ENDPOINT: pKd

1. DGAEGINPY ≤ 4.70

====

# MEASURED_TARGET: HLA-B*07:02
# METHOD: IEDB peptide-MHC binding, purified MHC/competitive/radioactivity; filed as Kd, often an IC50 or EC50 that approximates it; bounds were set here for any values at or beyond the usual limits of such assays
# CONDITION: source organism: Dengue virus 4 Philippines/H241/1956
pKd: −log10 of the molar value.
RECORDED_ENDPOINT: pKd

1. TPQPKPGTRM 7.40

====

# MEASURED_TARGET: HLA-B*35:01
# METHOD: IEDB peptide-MHC binding, purified MHC/competitive/fluorescence; filed as Kd, often an IC50 or EC50 that approximates it; bounds were set here for any values at or beyond the usual limits of such assays
# CONDITION: source organism: Influenza A virus (A/Kayano/57(H2N2))
RECORDED_ENDPOINT: Kd

1. LPFHNVHPL ≤ 0.1 nM

====

# MEASURED_TARGET: HLA-B*18:01
# METHOD: IEDB peptide-MHC binding, purified MHC/direct/fluorescence; filed as Kd, often an IC50 or EC50 that approximates it; bounds were set here for any values at or beyond the usual limits of such assays
# CONDITION: source organism: Influenza A virus (A/chicken/Hubei/wk/1997(H5N1))
RECORDED_ENDPOINT: Kd

1) NPALRMKWM ≥ 20 µM

====

# MEASURED_TARGET: HLA-A*02:06
# METHOD: IEDB peptide-MHC binding, purified MHC/competitive/radioactivity; filed as Kd, often an IC50 or EC50 that approximates it; bounds were set here for any values at or beyond the usual limits of such assays
# CONDITION: source organism: Vaccinia virus WR
RECORDED_ENDPOINT: Kd (nM)

1. DVLPFDIKYI 1110
2. PTWLGAAITL 1770
3. AVTLNRIKIA 2290
4. VLTILYYGA 6240
5. STSPTRTWKV 504
6. CTINVNSLA 248
7. SIGFEARIV 1310
8. QIYLSDSDNI 14900
9. TLLIKTLSPA 0.728
10. VIPDELIDVL 298
11. YMSNLFDIPL 127
12. RQDYRRSINV 2220
13. FLPQIGGEA 95.8
14. HINDQKFDDV 1190
15. SIISLFYTFA 93.6
16. HILHAYCGI 359
17. QQFANVISKI 863
18. LIYYQNEVT 8510
19. IVAMLLTHGA 82.2
20. NMWREILSNT 12000
21. YTISSESLV 53.6
22. PASKKESVI 10300
23. NIVTFINDYA 351
24. FIDRGSIKI 4030
25. YVNAILYQI 1980
26. YTVEFDRDKV 22
27. ETDDDGNYPL 1160
28. ALCKVTVPT 210
29. KIDKLTFQI 41.9
30. RLRQDTEDI 4580
31. KVEKYLPEVI 734
32. IISTDQDTML 666
33. QMAGVEVRYI 44.8
34. DMLLNVQTL 13400

====

# MEASURED_TARGET: HLA-A*01:01
# METHOD: IEDB peptide-MHC binding, purified MHC/competitive/fluorescence; filed as Kd, often an IC50 or EC50 that approximates it; bounds were set here for any values at or beyond the usual limits of such assays
# CONDITION: source organism: Yersinia pestis Nepal516
RECORDED_ENDPOINT: Kd (nM)

1) CLLSHTLAY 1060

====

# MEASURED_TARGET: HLA-A*30:01
# METHOD: IEDB peptide-MHC binding, purified MHC/direct/fluorescence; filed as Kd, often an IC50 or EC50 that approximates it; bounds were set here for any values at or beyond the usual limits of such assays
# CONDITION: source organism: Giardia lamblia ATCC 50803
pKd: −log10 of the molar value.
RECORDED_ENDPOINT: pKd

1) ASSWAPTQK 5.38

====

# MEASURED_TARGET: HLA-B*57:01
# METHOD: IEDB peptide-MHC binding, purified MHC/direct/fluorescence; filed as Kd, often an IC50 or EC50 that approximates it; bounds were set here for any values at or beyond the usual limits of such assays
# CONDITION: source organism: Marburg virus - Musoke, Kenya, 1980
pKd: −log10 of the molar value.
RECORDED_ENDPOINT: pKd

1. GEGSGARLL ≤ 4.70

====

# MEASURED_TARGET: HLA-B*35:01
# METHOD: IEDB peptide-MHC binding, purified MHC/competitive/radioactivity; filed as Kd, often an IC50 or EC50 that approximates it; bounds were set here for any values at or beyond the usual limits of such assays
# CONDITION: source organism: Dengue virus 1 Brazil/97-11/1997
pKd: −log10 of the molar value.
Label TRUE when pKd is at or above 7; otherwise label FALSE.

1) MLVTPSMAM FALSE
2) LPQHLTLRAQ FALSE
3) HAHWTEAKM FALSE
4) IAVGMVTLY TRUE
5) MPVTVASAAQ FALSE
